Catalogue of half-life values
assay: Half-life value was evaluated; type: ADME
Numeric answer only, unit h assumed.

                            chemical_smiles  reported_result
0  Cc1c(C(=O)N(CC(=O)O)c2ccc(C(F)(F)F)cc2)cnn1-c1ccc(F)cc1                6

// moving on: another record for half-life
half-life for "Cc1c(C(=O)Nc2ccc(C(F)(F)F)cc2)cnn1-c1ccc(F)cc1" ?
13.7

* * *

species: Homo sapiens; assay: Immunosuppressant activity using human mixed leukocyte response (HMLR).; format: functional
Each entry below carries its reported pIC50.
Reminder that pIC50 is minus the log10 of a molar concentration.

Completed entries (count: 3):
In [3]: df
Out[3]:
                            chemical_smiles  reported_result
0  COc1cccc(-n2ncc(C(=O)Nc3ccc(C(F)(F)F)cc3)c2C)c1             5.60
1  Cc1c(C(=O)Nc2ccc(OC(F)(F)F)cc2)cnn1-c1ccc(F)cc1             5.47
2  Cc1c(C(=O)N(CC(=O)O)c2ccc(C(F)(F)F)cc2)cnn1-c1ccc(F)cc1             5.49

Bench note: what pIC50 did "Cc1c(C(=O)Nc2ccc(C(F)(F)F)cc2)cnn1Cc1ccccc1" show?
5.43

Where do these numbers come from? They come from ChEMBL document CHEMBL1130610.
